Assay: Stability in 20% mouse serum (reverse-phase HPLC)
Assay type: in vitro ADME
Conditions: 37° C., 2 h incubation, read-out: peptide still intact
No end group written: not given here.
Measured Parameter: remaining at 2 h

Item: GRKKRRQRRRPPQKKSRKEKKQTGSGPLG-NH2 [Tat-DAXXp, GRKKRRQRRRPPQ-KKSRKEKKQTGSGPLG-NH2] | remaining at 2 h: > 70%

---

Biological target: intracellular region of the Fas receptor (Homo sapiens)
Sequence (P25445 191-335 limits assumed): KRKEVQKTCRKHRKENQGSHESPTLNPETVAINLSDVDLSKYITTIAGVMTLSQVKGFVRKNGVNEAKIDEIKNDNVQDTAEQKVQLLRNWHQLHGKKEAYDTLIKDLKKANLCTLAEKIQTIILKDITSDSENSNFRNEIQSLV
Assay: Binding affinities (Kd) by surface plasmon resonance (Biacore)
Details: mean of three independent experiments, read-out: Kd ± SD
No end group written: not given here.
Measured Parameter: Kd

Given the substance KKGRKQSGESLGTPKK-NH2 [scrDAXXp, KKGRKQSGESLGTPKK -NH2] and test system intracellular region of the Fas receptor (Homo sapiens), the measured Kd is ≥ 6 mM
